Study Target: T1, soluble form of the Variant-specific Surface Glycoprotein (sVSG) of T. b. brucei AnTat1.1 (Trypanosoma brucei brucei AnTat1.1, UniProt P06015)
T1 construct: Variant-specific Surface Glycoprotein (VSG) of Trypanosoma brucei brucei AnTat1.1, soluble form (sVSG); Glycoprotein; amine-coupled to a CM5 chip for SPR; also called AnTat1.1 sVSG; soluble AnTat1.1 VSG
Test Protocol: SPR; BIAcore T100; 1000-1500 RU soluble AnTat1.1 VSG amine-coupled on a CM5 chip; Nanobody 500 to 7.8 nM at 30 µl/min in HBS (10 mM Hepes pH 7.5, 150 mM NaCl, 3.5 mM EDTA, 0.005% Tween-20); 1:1 binding model with local Rmax
Measurement Setup: both partners purified
Result Type: Kd (nM)
Give the value in nM but do not write nM after it.

• Nb_An-R4.80 (VHH, From the alpaca sVSG-immune library, cloned in pMES; source: E. coli WK6, purified (Ni-NTA, Superdex 75 gel filtration)) VHH: QVQLQESGGGLVQPGGSLRLSCEASGFILGYYTIGWIRQAPGKEREGVICITSAGGRTNYADSVKGRFTISRDNAKNTVYLQMNSLKPEDTAVYYCAADLTNLCDSSWLRDGMNYWGKGTQVTVSS = 6
• Nb_An-R4.71 (VHH, From the alpaca sVSG-immune library, cloned in pMES; source: E. coli WK6, purified (Ni-NTA, Superdex 75 gel filtration)) VHH: QVQLQESGGGLVQPGGSLRLSCAASGFILNYATIAWFRQAPGKEREGVSCISSAFNTNYADSVKGRFAISRDNAKNTVYLQMNSLKPEDTAVYYCAATFGGTSYCSLRPDSSVPYDTWGQGTQVTVSS = 7
• Nb_An-R3.68 (VHH, From the alpaca sVSG-immune library, cloned in pMES; source: E. coli WK6, purified (Ni-NTA, Superdex 75 gel filtration)) VHH: QVQLQESGGGLVQPGGSLRLSCAASGGTLSYYAVGWFRQAPGKEREAVSSIRSGGGITVYADSVKGRFTISRDNKKNTVYLQMNGLKPEDTAVYYCAAGLWRWPDHNMLVSGNYDYWGQGTQVTVSS = 12

# evaluate next
INPUT: Fill in: Kd of Nb_An-R3.92 (VHH, From the alpaca sVSG-immune library, cloned in pMES; source: E. coli WK6, purified (Ni-NTA, Superdex 75 gel filtration)) VHH: QVQLQESGGGLVQAGGSLRLSCEASGFILGYYTIGWFRQAPGKEREGVLCISSAGGRTNYADSVKGRFTISRDNAKNTVYLQMNSLKPEDTAVYYCAADLINLCDSSWWRDGMNYWGKGTQVTVSS is ___
OUTPUT: 11
